Tested on: HL-60(TB) leukemia
assay text: NCI tumour cell line growth inhibition, 48 h
Here, each record is paired with measured TGI data.

{"compound": "O=C1NC2CCCCC2N=C1/C(C(=O)c1ccccc1)=C(\\O)c1ccccc1 (configuration not stated)", "TGI": "> 100 µM"}
{"compound": "Oc1ccc(Cl)cc1C1=N/C(=N\\C/N=C2\\N=C(c3cc(Cl)ccc3O)CC(c3ccccc3)N2)NC(c2ccccc2)C1 (configuration not stated)", "TGI": "> 100 µM"}
{"compound": "C=C(Br)CNCC(=C)Br", "TGI": "> 100 µM"}
{"compound": "COC/N=C(/N)NC#N", "TGI": "> 100 µM"}
{"compound": "N#CC12C(=O)N3C(=NC(c4ccccc4)NC3c3ccccc3)C1(C#N)C(c1ccccc1)NC1=C2CCCC1 (configuration not stated)", "TGI": "> 100 µM"}
{"compound": "CC1C2CC(C/C2=N/O)C1(C)C (configuration not stated)", "TGI": "> 100 µM"}
{"compound": "CC1(C)CC2=C(Sc3ccccc3N2)C(=O)C1C(=O)C(=O)Nc1cc(Cl)ccc1Cl (configuration not stated)", "TGI": "> 100 µM"}
{"compound": "CCNc1ncnc2c1nnn2CC", "TGI": "> 100 µM"}
{"compound": "COc1ccc(/C(=N/Nc2nc3ccccc3[nH]2)C(=O)O)cc1", "TGI": "> 100 µM"}
{"compound": "C[C@@H]1CC[C@@H](C)[C@](C)(CCc2ccoc2)C/C=C\\C=C/1C(=O)O", "TGI": "> 50 µM"}
{"compound": "COc1cc([C@H]2Oc3c(OC)cc(CCCO)cc3[C@@H]2CO)ccc1O", "TGI": "> 100 µM"}
{"compound": "C#CCSc1nc(N)c2ncn(C3OC(COP(=O)(O)O)C(O)C3O)c2n1 (configuration not stated)", "TGI": "> 239 µM"}

* * *

System: SW-620 colon
assay text: NCI tumour cell line growth inhibition, 48 h
Here, each record is paired with measured TGI data.

{"compound": "Nc1ccc(C(=O)N/C(=C\\c2cccc([N+](=O)[O-])c2)c2nc3ccc(Cl)cc3[nH]2)cc1", "target": "SW-620 colon", "TGI": "> 100 µM"}
{"compound": "Oc1nc(N/N=C/c2ccccc2)[nH]c1/C=C1\\C=Nc2ccccc21", "target": "SW-620 colon", "TGI": "> 100 µM"}
{"compound": "Nc1n[nH]c(N)c1N=Nc1ccc(O)cc1", "target": "SW-620 colon", "TGI": "84.8 µM"}
{"compound": "Cc1nn(C)c2nc3ccc(Cl)cc3c(-c3ccccc3)c12", "target": "SW-620 colon", "TGI": "> 100 µM"}
{"compound": "Cc1oc2c(c1C(=O)N1CC[C@@H](N)C1)C(=O)c1c(c(O)c3ccccc3c1O)C2=O", "target": "SW-620 colon", "TGI": "7.28 µM"}
{"compound": "COc1ccc(-c2onc(-c3c(C)cc(C)cc3C)c2C2=NCCN2)cc1", "target": "SW-620 colon", "TGI": "> 100 µM"}
{"compound": "O=C(Nc1ccccc1Cl)c1cccc(NC2=C(Cl)C(=O)N(Cc3ccccc3)C2=O)c1", "target": "SW-620 colon", "TGI": "> 100 µM"}
{"compound": "CCC[CH2][Sn]([CH2]CCC)([O]C(=O)/C=C/c1ccccc1F)[O]C(=O)/C=C/c1ccccc1F", "target": "SW-620 colon", "TGI": "0.479 µM"}
{"compound": "Cc1ccnc(NC(=S)Nc2cccc(Cl)c2)c1", "target": "SW-620 colon", "TGI": "> 100 µM"}

The reported numbers originate from PubChem BioAssay (NCI).
